# System: Trichophyton interdigitale 445
# protocol: Antifungal microdilution broth method, T. interdigitale
# Type: cell-based
# assay_setup: 120 h, read-out: MIC TI 120 h
Provide the recorded MIC for the entries that follow.
One number for each entry, in µM.

>>> measured_result("O=C(O)c1ccc(N=Cc2cccc(Cl)c2O)cc1")
125
>>> measured_result("O=C(O)c1ccc(N=Cc2cc(I)ccc2O)cc1")
31.2
>>> measured_result("O=C(O)c1ccc(N=Cc2cc(I)cc(I)c2O)cc1")
7.81

Turning to the following compound.
query: Name the reported MIC value associated with the compound O=C(O)c1ccc(N=Cc2cc(Cl)ccc2O)cc1
result: 125

----------
Provide the recorded MIC for the entries that follow.
# Tested on: M. kansasii 6509/96 (clinical isolate)
# protocol: Antimycobacterial micromethod in Šula's medium, M. kansasii 6509/96
# Format: cell-based
# assay_setup: Mycobacterium kansasii, 168 h; 7 days incubation at 37 °C; read-out: MIC M. kansasii 6509/96 7 d
One number for each entry, in µM.

Reference set, count: 6
>>> measured_result("O=C(O)c1ccc(N=Cc2ccccc2O)cc1")
1000
>>> measured_result("O=C(O)c1ccc(N=Cc2cc(F)ccc2O)cc1")
500
>>> measured_result("O=C(O)c1ccc(NCc2ccccc2O)cc1 [1u, 4-[(2-Hydroxybenzyl)amino]benzoic acid]")
1000
>>> measured_result("O=C(O)c1ccc(N=Cc2ccc(O)cc2)cc1")
1000
>>> measured_result("Nc1ccc(C(=O)O)cc1")
1000
>>> measured_result("O=C(O)c1ccc(N=Cc2cc(Cl)cc(Br)c2O)cc1")
500

Quick request: MIC for each listed item, please.
1. O=C(O)c1ccc(N=Cc2cc(I)ccc2O)cc1
2. O=C(O)c1ccc(N=Cc2cc(I)cc(I)c2O)cc1

result:
1: 250; 2: 250

Quick request: MIC for each listed item, please.
1. O=C(O)c1ccc(N=Cc2c(O)cccc2Cl)cc1
2. O=C(O)c1ccc(N=Cc2cc(Cl)cc(Cl)c2O)cc1
3. O=C(O)c1ccc(N=Cc2cc(Cl)cc(I)c2O)cc1
4. O=C(O)c1ccc(N=Cc2ccc([N+](=O)[O-])o2)cc1

result:
1: 250; 2: 250; 3: 250; 4: 125

----------
# Tested on: Klebsiella pneumoniae D 11750/08
# protocol: Antibacterial microdilution broth method, K. pneumoniae
# assay_setup: K. pneumoniae D 11750/08; 24 h incubation
metric_name: MIC KP 24 h

Reference set, count: 2
>>> measured_result("O=C(O)c1ccc(NCc2ccccc2O)cc1 [1u, 4-[(2-Hydroxybenzyl)amino]benzoic acid]")
">500 µM"
>>> measured_result("COc1ccc(O)c(C=Nc2ccc(C(=O)O)cc2)c1")
">500 µM"

Quick request: MIC KP 24 h for each listed item, please.
1. O=C(O)c1ccc(N=Cc2cc(I)ccc2O)cc1
2. O=C(O)c1ccc(N=Cc2cc(Br)ccc2O)cc1

result:
[">250 µM", ">250 µM"]

Quick request: MIC KP 24 h for each listed item, please.
1. O=C(O)c1ccc(N=Cc2cc([N+](=O)[O-])ccc2O)cc1
2. O=C(O)c1ccc(N=Cc2c(O)cccc2Cl)cc1
3. O=C(O)c1ccc(N=Cc2ccc(Cl)cc2O)cc1
4. O=C(O)c1ccc(N=Cc2cc(Cl)ccc2O)cc1
5. O=C(O)c1ccc(N=Cc2ccc([N+](=O)[O-])o2)cc1
6. CC(C)(C)c1ccc(O)c(C=Nc2ccc(C(=O)O)cc2)c1
7. O=C(O)c1ccc(N=Cc2cc(I)cc(I)c2O)cc1

result:
[">500 µM", ">500 µM", ">500 µM", ">500 µM", "500 µM", ">500 µM", "500 µM"]
